These entries and their values trace back to patent EP1143981B1.

# System: PBMCs
# Assay type: cell-based
# Settings: human
Measured Parameter: CC50

Query: CC50; subject: O=C(CO)N[C@H]1[C@H]([C@H](O)[C@H](O)CO)OC(O)(C(=O)O)C[C@@H]1O (stereo partly shown) > 1 mM

* * *

# Test: in vitro
# Assay type: cell-based
# Settings: human, cem-ss cells
Measured Parameter: CC50 at 144 h

Query: CC50 at 144 h; subject: O=C(CO)N[C@H]1[C@H]([C@H](O)[C@H](O)CO)OC(O)(C(=O)O)C[C@@H]1O (stereo partly shown) > 1000 µM
